# subject-of-test: T1, hIL-18 receptor (hIL-18Rα and hIL-18Rβ) (human, UniProt Q13478 19-541; O95256 20-599)
# T1 sequence (looked up) 1: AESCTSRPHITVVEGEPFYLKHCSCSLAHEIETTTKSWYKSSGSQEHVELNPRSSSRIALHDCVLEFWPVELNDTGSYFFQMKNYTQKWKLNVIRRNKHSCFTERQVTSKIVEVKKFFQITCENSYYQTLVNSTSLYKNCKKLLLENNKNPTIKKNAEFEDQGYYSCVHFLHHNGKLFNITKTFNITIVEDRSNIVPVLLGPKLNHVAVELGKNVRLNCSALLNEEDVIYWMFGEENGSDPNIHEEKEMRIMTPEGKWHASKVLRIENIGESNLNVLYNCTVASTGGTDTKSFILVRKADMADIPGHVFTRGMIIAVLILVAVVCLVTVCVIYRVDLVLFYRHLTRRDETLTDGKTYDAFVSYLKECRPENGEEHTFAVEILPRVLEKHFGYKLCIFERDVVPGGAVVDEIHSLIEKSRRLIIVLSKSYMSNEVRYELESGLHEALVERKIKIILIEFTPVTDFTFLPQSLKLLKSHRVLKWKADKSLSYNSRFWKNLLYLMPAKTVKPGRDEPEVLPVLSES
# T1 sequence (looked up) 2: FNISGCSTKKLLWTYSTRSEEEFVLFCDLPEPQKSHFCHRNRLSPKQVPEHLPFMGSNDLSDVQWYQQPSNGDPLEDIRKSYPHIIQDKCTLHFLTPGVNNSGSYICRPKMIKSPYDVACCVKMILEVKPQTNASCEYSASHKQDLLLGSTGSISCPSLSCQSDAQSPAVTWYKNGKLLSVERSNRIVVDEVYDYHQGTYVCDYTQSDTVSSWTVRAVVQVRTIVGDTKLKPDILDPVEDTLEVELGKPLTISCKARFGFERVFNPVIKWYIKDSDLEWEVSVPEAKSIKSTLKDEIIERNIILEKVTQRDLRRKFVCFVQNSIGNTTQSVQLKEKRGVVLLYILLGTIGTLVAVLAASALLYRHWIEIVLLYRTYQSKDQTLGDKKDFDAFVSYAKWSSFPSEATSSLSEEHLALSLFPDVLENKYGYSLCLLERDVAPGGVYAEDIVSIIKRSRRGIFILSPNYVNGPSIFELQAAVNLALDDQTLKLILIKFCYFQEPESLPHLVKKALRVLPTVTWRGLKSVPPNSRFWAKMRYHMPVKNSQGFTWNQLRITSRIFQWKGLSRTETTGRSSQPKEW
# experiment-description: cell-based or functional assay
The following binders are shown together with reported EC50 (nM), hIL-18 reporter assay values.

binder	EC50 (nM), hIL-18 reporter assay
IL-18 variant polypeptide M39 (ligand) YFPKLRSKLSVIRNLNDQVLFIDQGNRPLFEDMTDSDCRDNAPRTIFIISMYKWSPGRGMAVTISVKCEKISTLSCENKIISFKEMNPPDVIKDTKSDIIFFQLSVPGHDNKMQFESSSYEGYFLACEKERDLFKLILKKEDELGDRSIMFTVQNED	0.3
IL-18 variant polypeptide MM5 (ligand) YFGKLGSKLSVIRNLNDQVLFIDQGNRPLFEDMTDSDCRDNAPRTIFIISMYKLSTERGMAVTISVKCEKISTLSCENKIISFKEMNPPDGIKDTKSDIIFFQSSVPGHDNKMQFESSSYEGYFLACEKERDLFKLILKKEDELGDRSIMFTVQNED	0.028
IL-18 variant polypeptide M22 (ligand) YFPKLRSKLSVIRNLNDQVLFIDQGNRPLFEDMTDSDCRDNAPRTIFIISMYKYSRGRGMAVTISVKCEKISTLSCENKIISFKEMNPPDKIKDTKSDIIFFQSSVPGHDNKMQFESSSYEGYFLACEKERDLFKLILKKEDELGDRSIMFTVQNED	7.2

Reference for the values: patent US20260092093A1
